biological target: Endoglucanase-5 (Mycothermus thermophilus); test: Binding affinity to Humicola insolens NCE5 assessed as dissociation constant at pH 3.0 and at 59 degC by differential scanning calorimetry
Sequence (P43316 whole entry): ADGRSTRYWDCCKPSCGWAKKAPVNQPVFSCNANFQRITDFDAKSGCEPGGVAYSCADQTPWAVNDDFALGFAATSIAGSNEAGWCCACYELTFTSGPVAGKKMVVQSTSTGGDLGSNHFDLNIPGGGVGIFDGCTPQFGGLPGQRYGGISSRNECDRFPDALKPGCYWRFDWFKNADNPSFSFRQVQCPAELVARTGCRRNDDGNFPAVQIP
Below, each entry is listed alongside its reported Ki.
State the answer as a number, implicitly in mM.

As a guide, the following entries are already answered.
# Compound structure, Ki (mM)
data = [
    ("CO[C@@H]1O[C@H](CO)[C@@H](S[C@@H]2C=C(CO)[C@@H](O[C@@H]3O[C@H](CO)[C@@H](O)[C@H](O)[C@H]3O)[C@H](O)[C@H]2O)[C@H](O)[C@H]1O", 29),
    ("CO[C@@H]1O[C@H](CO)[C@@H](O[C@@H]2O[C@H](CO)[C@@H](S[C@@H]3C=C(CO)[C@@H](O[C@@H]4O[C@H](CO)[C@@H](O)[C@H](O)[C@H]4O)[C@H](O)[C@H]3O)[C@H](O)[C@H]2O)[C@H](O)[C@H]1O", 1.6),
]

Kindly note the recorded Ki for `CO[C@@H]1O[C@H](CO)[C@@H](O[C@@H]2O[C@H](CO)[C@@H](S[C@@H]3O[C@H](CO)[C@@H](O[C@@H]4O[C@H](CO)[C@@H](O)[C@H](O)[C@H]4O)[C@H](O)[C@H]3O)[C@H](O)[C@H]2O)[C@H](O)[C@H]1O` , which is 3.9

Kindly note the recorded Ki for `CO[C@H]1O[C@H](CO)[C@@H](S[C@@H]2C=C(CO)[C@@H](O[C@@H]3O[C@H](CO)[C@@H](O)[C@H](O)[C@H]3O)[C@H](O)[C@H]2O)[C@H](O)[C@H]1O` , which is 25
